From: patent US12509448B2

assay.details: Solubility test in pH 1.2, 6.8 and 7.4 buffers (HPLC, pH of filtrate, XRPD of remaining solid)
Format: physicochemical
cond: pH 1.2 buffer, 25 °C, pH 1.2, simulated gastric fluid, thermodynamic from solid, pH 1.2 buffer, 24 hours, 25° C.; read-out: Solubility (mg/mL) 24 hours
Structures can show the parent of a compound that is named as a salt.
quantity: solubility at 24 h (mg/mL)
# output: bare number, implied unit mg/mL

Q. So what does the record say about solubility at 24 h for CCN(c1ncc(C2(C(=O)O)CCC2)cc1Nc1ccc(Cl)cc1)C1CCOCC1 [HCl salt] ?
A. 0.65
